Quick reference for protein stability index among some sequences
Experiment: protein stability index of a GFP-peptide fusion (GPS, HEK-293T) (PSI 1-6); higher = more stable;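 also: 24-mer peptide tiles fused after GFP, lentivirally expressed, FACS-sorted into six equal bins by GFP/DsRed ratio, decoded by Illumina sequencing, PSI is the read-weighted mean bin number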
Details: treatment: MLN4924 1 uM, 8 h; c terminus: native

Worked cases, answers included:
Biopolymer Sequence: SPVNMVTVAMVAGQCEFAHILHS [ZNF649]
protein stability index: 1.87
//
Biopolymer Sequence: AGHCSASPGPAAPTARMPGRLRG
protein stability index: 2.93
//
Biopolymer Sequence: DILPIHPPSGNSDLDPDAQNPML [BTBD10]
protein stability index: 5.21
//
Biopolymer Sequence: GDASECPQATNAKDSGCSSPGAH [PPEF2]
protein stability index: 5.57
//
Biopolymer Sequence: CGTKYPVEWAKFCCECGIRRMIL [ZC2HC1A]
protein stability index: 3.53

Give the measured protein stability index of LLRMCSHGEGKINYYNFVRAFSN [EFHC1] . 2.08

----------
Assay: protein stability index of a GFP-peptide fusion (GPS, HEK-293T) (PSI 1-6); higher = more stable
Settings: treatment: MLN4924 1 uM, 8 h; c terminus: a fixed tail appended
Quick reference for protein stability index among some sequences
Enter a number only.

Worked cases, answers included:
Biopolymer Sequence: TWMLEVCEEQKCEEEVFPLAMNYL [CCND2]
Quantity: protein stability index
Observed Value: 2.89

Biopolymer Sequence: PEGARRGLGVLRALGSRGWEPFDW [FANCE]
Quantity: protein stability index
Observed Value: 2.98

Biopolymer Sequence: ALSLLELLGFNLTFVFLASLLVLI [CLCN6]
Quantity: protein stability index
Observed Value: 2.69

Biopolymer Sequence: PDTQENRRMFSSLFQFSNCSQGQQ [CCDC3]
Quantity: protein stability index
Observed Value: 3.51

Biopolymer Sequence: QWRIRNLPYPKDVYSVSVDQKERC [DPCD]
Quantity: protein stability index
Observed Value: 3.17

Give the measured protein stability index of MRLSSSPPRGPQQLSSFGSVDWLS [VENTX] . 3.15

Give the measured protein stability index of CVARPGTPSLLRFALASLLQSAPD [ZSWIM9] . 2.24

Give the measured protein stability index of PSCRHEVVLDRHGVYGLQRNLLVE [TRIM55] . 2.3

Give the measured protein stability index of MSQTGSHPGRGLAGRWLWGAQPCL [ADAMTS4] . 2.28

Give the measured protein stability index of ELLATGDKGGRVVIFQREQESKNQ [PPP2R2B] . 3.91

Give the measured protein stability index of TAGQERFRALAPMYYRGSAAAIIV [RAB22A] . 2.25

Give the measured protein stability index of TNLKETYRCIREARYTMPSSLLAP [PLK2] . 2.3

Give the measured protein stability index of GQTVTIWAANAGVTASPPTDLIWK [LMNB1] . 2.34

----------
Quick reference for protein stability index among some sequences
Experiment: protein stability index of a GFP-peptide fusion (GPS, HEK-293T) (PSI 1-6); higher = more stable
Details: treatment: MLN4924 1 uM, 8 h; c terminus: a fixed tail appended

Worked cases, answers included:
Biopolymer Sequence: ATKTEPKKLEKYLQKLSALLMTAD [ELOA2]
Observed Value: 2.31
--
Biopolymer Sequence: ALKRFVNLVARHPLFSEDVVLKLF [SNX8]
Observed Value: 2.46
--
Biopolymer Sequence: KDAAKQIAWIKDKLLHIYYQNSID [PDS5B]
Observed Value: 2.39

Give the measured protein stability index of ILHIPQVTKLCVQFLNDQISVQNY [KLHL14] . 2.51

Give the measured protein stability index of KDEPSKYNQQQALIDQRYFQVLCS [CEP70] . 3.13

Give the measured protein stability index of IADLFVADQRSRMLSIFYFAIPVG [SPNS1] . 2.94

Give the measured protein stability index of VQYGAGVACSETAPDLVLNAEMVQ [LOXL2] . 4.47
